- run.description: Two-period crossover pharmacokinetics of nalmefene 3 mg IN vs 1.0 mg IM (Example 12)
- stated.conditions: human, plasma, intramuscular, 1 mg, Mean plasma concentration, Treatment B 1.0 mg IM; 0.500 h
recorded.metric: concentration at 0.5 h (ng/mL)
Dear colleague, please return just the value in ng/mL, with no unit written.

Task: Sample `C=C1CC[C@@]2(O)[C@H]3Cc4ccc(O)c5c4[C@@]2(CCN3CC2CC2)[C@H]1O5` — what was its concentration at 0.5 h?
Result: 1.11

###

- run.description: Two-period crossover pharmacokinetics of nalmefene 3 mg IN vs 1.0 mg IM (Example 12)
- stated.conditions: human, plasma, other: intranasal, 3 mg, Median plasma concentration, Treatment A 3.0 mg IN; 4.00 h
recorded.metric: concentration at 4 h
State the result as a value with its unit after it.

Task: Sample C=C1CC[C@@]2(O)[C@H]3Cc4ccc(O)c5c4[C@@]2(CCN3CC2CC2)[C@H]1O5 [Nalmefene] — what was its concentration at 4 h?
Result: 2.49 ng/mL
